target: UniProtKB P00918; assay: Inhibition of human Carbonic anhydrase 2-mediated CO2 hydration by stopped-flow method
Quantity Kind: IC50 (nM)
Field format: number, assumed nM, no unit text.

Completed entries (count: 3):
{"columns": ["Molecule", "IC50 (nM)"],
 "data": [
  ["O=C(NCCCNS(=O)(=O)c1ccc(Oc2ccccc2)cc1)P(=O)(O)O", 580],
  ["O=C(NCCCCCNS(=O)(=O)c1ccc(Oc2ccccc2)cc1)P(=O)(O)O", 310],
  ["O=C(NCCNC(=O)P(=O)(O)O)c1ccc(Oc2ccccc2)cc1", 610]
]}

Okay, next one:
What value of IC50 on UniProtKB P00918 does CC(C)NC(=O)P(=O)(O)O have?
13900
